Recorded values, source patent US20240293558A1.

target: KRAS (WT) (Homo sapiens); construct: Biotinylated KRAS protein amino acids 1-169 (produced at Erasca); made in house; test: In-vitro RAS-RAF binding assay (RRB), HTRF/FRET; format: biochemical; conditions: Table 2, average of multiple runs of each compound; read-out: Inhibition of RAS-RAF Binding (in-vitro) KRAS (WT) IC50
Sequence (P01116 1-169 isoform P01116-2): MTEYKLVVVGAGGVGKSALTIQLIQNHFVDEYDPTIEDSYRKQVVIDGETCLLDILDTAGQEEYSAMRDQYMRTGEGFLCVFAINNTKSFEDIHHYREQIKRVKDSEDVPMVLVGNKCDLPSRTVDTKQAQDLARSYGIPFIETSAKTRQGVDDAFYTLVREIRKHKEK
Quick reference for IC50 among some molecules
Supply the numeric figure in µM, leaving out any unit text.

Query :: Please report the measured IC50 for `C#Cc1c(F)ccc2cc(O)cc(-c3ncc4c(N5CC6CCC(C5)N6)nc(OC[C@@H]5CCCN5CCCOCCC(=O)N[C@H](C(=O)N5C[C@H](O)C[C@H]5C(=O)N[C@@H](C)c5ccc(-c6ccncc6C#N)cc5)C(C)(C)C)nc4c3F)c12`
Result :: 0.0242

Query :: Please report the measured IC50 for C[C@H](NC(=O)[C@@H]1C[C@@H](O)CN1C(=O)[C@@H](NC(=O)CCOCCCN1CCC[C@H]1COc1nc(N2CC3CCC(C2)N3)c2cc(Cl)c(-c3ccc(F)c4sc(N)c(C#N)c34)c(F)c2n1)C(C)(C)C)c1ccc(-c2c(F)cc(F)cc2F)cc1 (single isomer, unassigned) [Example 97]
Result :: 0.03

Query :: Please report the measured IC50 for `C#Cc1c(F)ccc2cc(O)cc(-c3ncc4c(N5CC6CCC(C5)N6)nc(OCCN5CCC6(CC5)CN(c5cc([C@H](C(=O)N7C[C@H](O)C[C@H]7C(=O)N[C@@H](C)c7ccc(-c8ccccc8Cl)cc7)C(C)C)on5)C6)nc4c3F)c12`
Result :: 1.61

Query :: Please report the measured IC50 for `CC(C)[C@@H](C(=O)N1C[C@H](O)C[C@H]1C(=O)N[C@@H](C)c1ccc(-c2c(F)cccc2F)cc1)c1cc(OCC2CCN(CCOc3nc(N4CC5CCC(C4)N5)c4cc(C(F)(F)F)c(-c5ccc(F)c6sc(N)c(C#N)c56)c(F)c4n3)CC2)no1`
Result :: 3.14

Query :: Please report the measured IC50 for C#Cc1c(F)ccc2cc(O)cc(-c3ncc4c(N5CC6CCC(C5)N6)nc(OCCN5CCC(COc6cc(C(C(=O)N7C[C@H](O)C[C@H]7C(=O)N[C@@H](C)c7ccc(-c8scnc8C)cc7)C(C)C)on6)CC5)nc4c3F)c12 (stereo in doubt)
Result :: 0.196

Query :: Please report the measured IC50 for `Cc1ncsc1-c1ccc([C@H](C)NC(=O)[C@@H]2C[C@@H](O)CN2C(=O)[C@@H](NC(=O)CCCCN2CCC[C@H]2COc2nc(N3CC4CCC(C3)N4)c3cc(C(F)(F)F)c(-c4ccc(F)c5sc(N)c(C#N)c45)c(F)c3n2)C(C)(C)C)cc1`
Result :: 0.043

Query :: Please report the measured IC50 for `C#Cc1c(F)ccc2cc(O)cc(-c3ncc4c(N5CC6CCC(C5)N6)nc(OC[C@@H]5CCCN5CCCOCCC(=O)N[C@H](C(=O)N5C[C@H](O)C[C@H]5C(=O)N[C@@H](C)c5ccc(-c6scnc6C)cc5)C(C)(C)C)nc4c3F)c12`
Result :: 0.0491

Query :: Please report the measured IC50 for `C#Cc1c(F)ccc2cc(O)cc(-c3ncc4c(N5CC6CCC(C5)N6)nc(OCCN5CCC6(CC5)CN(c5cc([C@H](C(=O)N7C[C@H](O)C[C@H]7C(=O)N[C@@H](C)c7ccc(-c8cccc(F)c8F)cc7)C(C)C)on5)C6)nc4c3F)c12`
Result :: 1.43

Query :: Please report the measured IC50 for `C[C@H](NC(=O)[C@@H]1C[C@@H](O)CN1C(=O)[C@@H](NC(=O)CCOCCCN1CCC[C@H]1COc1nc(N2CC3CCC(C2)N3)c2cc(C(F)(F)F)c(-c3ccc(F)c4sc(N)c(C#N)c34)c(F)c2n1)C(C)(C)C)c1ccc(-c2c(F)ccc(F)c2F)cc1`
Result :: 0.054
